assay: 96 h application of a TDS: bioavailability, blood levels of benzopyrone during application and after removal; settings: human, blood, topical or ocular, 200 mg

compound: O=c1ccc2ccccc2o1 [benzopyrone, 5,6-benzo-alpha-pyrone]
concentration at 3 h [ng/mL]: 2.4

----------
test: 96 h application of a TDS: bioavailability, blood levels of benzopyrone during application and after removal; conditions: human, blood, topical or ocular, 200 mg

structure_as_smiles: O=c1ccc2ccccc2o1
measurement_units: ng/mL
concentration at 48 h: 5.5

----------
assay: 96 h application of a TDS: bioavailability, blood levels of benzopyrone during application and after removal; conditions: human, blood, topical or ocular, 200 mg

structure_as_smiles: O=c1ccc2ccccc2o1
concentration at 6 h (ng/mL): 0.8
